ASSAY METHOD TEXT: Modulation of p-gp (unknown origin) transfected in human MDA435/LCC6MDR cells assessed as reversal of paclitaxel resistance
Exercise: for every item that follows, state its recorded EC50.
Use nM as the unit, but write only the number.

// Input: "COc1ccc(C2=C(c3cc(OC)c(OC)c(OC)c3)C(=O)N(CC(=O)c3ccc(OCc4ccccc4)c(OC)c3)C2=O)cc1OC" . Output its EC50 only.
110

Answer with the recorded EC50 for the compound listed here: "COc1ccc(C2=C(c3ccc(OC)c(OC)c3)C(=O)N(CC(=O)c3ccc(OCc4ccccc4)c(OC)c3)C2=O)cc1OC"
94
